experiment: protein stability index of a GFP-peptide fusion (GPS, HEK-293T) (PSI 1-6); higher = more stable; conditions: treatment: DMSO; c terminus: a fixed tail appended;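 also: 24-mer peptide tiles fused after GFP, lentivirally expressed, FACS-sorted into six equal bins by GFP/DsRed ratio, decoded by Illumina sequencing, PSI is the read-weighted mean bin number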
Quick reference for protein stability index among some sequences
// return a plain number; no unit text

Here are 5 sequences together with their reported answers.
>  <input_sequence>
PLLGVKGDGKSKKKQAGRPKGSKG [RBBP5]

>  <protein stability index>
4.88

$$$$
>  <input_sequence>
EESYYCRCHRGYTLDPNGKTCSRV [MATN2]

>  <protein stability index>
2.82

$$$$
>  <input_sequence>
IYSTKLYRFFKYIENRDVAKSVLK [BTBD10]

>  <protein stability index>
3.1

$$$$
>  <input_sequence>
VFHLPFYSSNQLHHFFCDIAPVLK [OR10K2]

>  <protein stability index>
2.23

$$$$
>  <input_sequence>
RIFTSNTHSSVVLQGFDQLRLEGL [KLHL13]

>  <protein stability index>
2.42

$$$$

Task: Identify measured protein stability index associated with ILAETGIRKTVKRLRKHQHVGDFA [ELOA2]
Result: 2.78

Task: Provide measured protein stability index value, entry: MGFAAKAMKSVHENMDLNKIDDLM [CHMP4C]
Result: 3.59

Task: Assign protein stability index to the following record: AEPAPRAREGGGCGRSEVRPVAPR [SMAD6]
Result: 4.35

Task: Annotate the sequence LHMSQRERTWPPPAMSPYWRTWMT [C22orf15] with its measured protein stability index.
Result: 2.31

====

protein stability index: recorded values
experiment: protein stability index of a GFP-peptide fusion (GPS, HEK-293T) (PSI 1-6); higher = more stable; settings: treatment: DMSO; c terminus: a fixed tail appended
No unit in the answer, only the number.

>  <input_sequence>
LLPIVPLSWLVWLLLLLLASLLPS [ADAMTS4]

>  <protein stability index>
3.04

$$$$
>  <input_sequence>
VQLSDEMFVFQDGRWVNENCRLQS [CBY2]

>  <protein stability index>
3.06

$$$$

Then this sequence:
Task: Read the entry KVLEEGGFFEEKGAIFCPPCYDVR [PDLIM7] and write its reported protein stability index.
Result: 2.96

====

experiment: protein stability index of a GFP-peptide fusion (GPS, HEK-293T) (PSI 1-6); higher = more stable; settings: treatment: DMSO; c terminus: a fixed tail appended
Classify as follows. Reported protein stability index greater than or equal to 3: T. Reported protein stability index below: F.

>  <input_sequence>
DIDGDVLVFLELAQFHCAYQLADW [RHOBTB2]

>  <label_value>
F

$$$$
>  <input_sequence>
REYLSEEVQAVHKNTTYDLIANIV [USP39]

>  <label_value>
F

$$$$
>  <input_sequence>
QVTASDSGDPPLSSNVSLSLFVLD [PCDHGA10]

>  <label_value>
T

$$$$

Task: Is protein stability index at least 3? Consider MYFSSLFPYVVLACFLVRGLLLRG [SLC6A17]
Result: F

Task: Please tell me: is the sequence VEVDTAPTVDLNQVLNETRSQYEA [KRT34] at or over 3 in terms of protein stability index?
Result: T

====

assay: protein stability index of a GFP-peptide fusion (GPS, HEK-293T) (PSI 1-6); higher = more stable; conditions: treatment: DMSO; c terminus: a fixed tail appended
# maps each entry to its protein stability index
Please respond with just the number, no unit label.

The following sequences have reported results that may help.
>  <input_sequence>
LALLPAAWEDSHGSQDGHFVLSCS [SCNN1D]

>  <protein stability index>
2.92

$$$$
>  <input_sequence>
QCNICGKCFSCNSNLHRHQRTHTG [ZNF263]

>  <protein stability index>
4.44

$$$$

Next:
Task: Tell me measured protein stability index for DSGDSKDIRLTLMEEVLLLGLKDK [GOLPH3L] please.
Result: 3.24
